Assay system: T1, KI (N-terminal acetylation)
T1 construct: de novo designed 28-residue coiled coil peptide, four heptads (gabcdef); also called KI peptide; source: synthetic peptide (solid phase, Fmoc), purified by reverse phase HPLC
T1 peptide: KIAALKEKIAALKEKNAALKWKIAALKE
Method description: circular dichroism, thermal denaturation; thermal denaturation at different peptide monomer concentrations, Tm related to Kd; Kd at 20 °C; 10 mM phosphate buffer pH 7
Assay setup: both partners purified
Value kind: Kd (nM)
Value expressed in nM; do not type the unit.

// query Any idea what Kd was measured for Ac-EVSALEKEVSALEKENSALEWEVSALEK-NH2 (de novo designed 28-residue coiled coil peptide, four heptads (gabcdef); also called EV peptide; source: synthetic peptide (solid phase, Fmoc), purified by reverse phase HPLC) [EV] ?
// result 85

Reference source: paper PMC4570195
